- System: P. falciparum 3D7 growth, pLDH absorbance
- protocol notes: blood-stage malaria parasite growth potency – strain 3D7, dose response (AID 2305)
measurement name: IC50
The reply should read as a number followed by its unit.

// known answers, use as guide
| compound | result |
| --- | --- |
| Cc1cc(C=C(P(=O)(OC(C)C)OC(C)C)P(=O)(OC(C)C)OC(C)C)c2ccccc2c1O | 1080 nM |
| COc1ccc2nccc([C@@H](O)CN3CCC(NCc4cn5cc(F)ccc5n4)CC3)c2c1 | 780 nM |
| CCCCN(C)CC#Cc1ccc(-c2ccc3[nH]c(C)c(Br)c(=O)c3c2)cn1 | 650 nM |

Prompt line: May I ask what IC50 has been recorded for "Fc1ccc2nc(-c3cccc(-c4ccc(CNCc5ccccc5)cc4)c3)[nH]c2c1" ?
Response line: 270 nM

Prompt line: Then what about the compound O=C(Nc1ccc(OC(F)(F)F)cc1)NC1CCN(c2ccnc3ccccc23)C1 (stereo not given) ?
Response line: 240 nM

Prompt line: Then what about the compound "COc1ccc2nccc([C@@H](O)CN3CCC(NCc4cc5oc(=O)[nH]c5cc4Cl)CC3)c2c1" ?
Response line: 380 nM

Prompt line: Then what about the compound COc1cccc(-c2nc3c(N4CCN(c5ccncc5)CC4)cccc3n2CC2CCCCCN2)n1 (stereo not given) ?
Response line: 1060 nM

Prompt line: Then what about the compound "Nc1c2c(nc3ccc(NC(=O)Cc4ccccc4)cc13)CCCC2" ?
Response line: 760 nM

###

Catalogue of pIC50 readings, one per entry.
- Tested on: P. falciparum 3D7 growth, pLDH absorbance
- protocol notes: blood-stage malaria parasite growth potency – strain 3D7, dose response (AID 2305)
Reminder that pIC50 is minus the log10 of a molar concentration.

// known answers, use as guide
| compound | tested system | pIC50 |
| --- | --- | --- |
| COc1ccc2ncc(C#N)c(CCN3CCC(NCc4ccc5c(n4)NC(=O)CS5)CC3)c2n1 | P. falciparum 3D7 growth, pLDH absorbance | 6.08 |
| CCCCN1CC[C@@H](CCC(O)c2cc(OCCC)nc3ccc(OC)cc23)[C@@H](CC)C1 (some centres undefined) | P. falciparum 3D7 growth, pLDH absorbance | 6.44 |
| C[C@@H]1CN(c2cnn(C/C=C/c3ccc(NC(=O)c4ccc([N+](=O)[O-])cc4)cc3)c(=O)c2Cl)C[C@H](C)N1 | P. falciparum 3D7 growth, pLDH absorbance | 6.15 |

Prompt line: Give the reported pIC50 for "CN(C)C(=NCCCCCCN=C(/N=C(/N)Nc1ccc(Cl)cc1)N(C)C)/N=C(/N)Nc1ccc(Cl)cc1" (system: P. falciparum 3D7 growth, pLDH absorbance).
Response line: 6.28

###

Catalogue of pIC50 readings, one per entry.
- System: P. falciparum 3D7 growth, pLDH absorbance
- protocol notes: blood-stage malaria parasite growth potency – strain 3D7, dose response (AID 2305)
Reminder that pIC50 is minus the log10 of a molar concentration.

// known answers, use as guide
| molecule | tested system | pIC50 |
| --- | --- | --- |
| CC(Oc1c(C2CCN(CCCCNC(=O)c3ccc(-c4ccc(C#N)cc4)cc3)CC2)ccc2c1CCCC2)C(N)=O (stereo not drawn) | P. falciparum 3D7 growth, pLDH absorbance | 6.17 |
| O=C(N[C@H]1CCN(Cc2ccc(OC3CCN(Cc4ccccc4)CC3)cc2)C1)c1ccc(Cl)c(Cl)c1 | P. falciparum 3D7 growth, pLDH absorbance | 6.14 |
| O=C(Nc1ccc(Cn2ncc(N3CCNCC3)c(Cl)c2=O)cc1)Nc1ccc(-c2ccccc2)cc1 | P. falciparum 3D7 growth, pLDH absorbance | 6.23 |
| COc1ccc(-c2ccc(NC(=O)c3cccc(Cl)c3)cc2)cc1CNC(C)C | P. falciparum 3D7 growth, pLDH absorbance | 6.33 |
| Cc1ccc(C(=O)c2oc3ccc4c(C)cc(=O)oc4c3c2C)cc1 | P. falciparum 3D7 growth, pLDH absorbance | 5.99 |
| C#C[C@H]1O[C@@H](n2cnc3c(Nc4cc(Br)cc(C(F)(F)F)c4)ncnc32)[C@H](O)[C@@H]1O | P. falciparum 3D7 growth, pLDH absorbance | 5.99 |

Prompt line: May I ask what pIC50 has been recorded for "CCCCCCN1CCC(CNCc2cccc([N+](=O)[O-])c2)CC1" ?
Response line: 6.14

Prompt line: Then what about the molecule "O=[N+]([O-])c1cccc(NC(=S)N2CCCN(Cc3ccc(C(F)(F)F)cc3)CC2)c1" ?
Response line: 5.92

Prompt line: Then what about the molecule CC1(CCCCN2CC=C(c3c[nH]c4ccccc34)CC2)C(=O)Nc2ccccc21 (stereo not drawn) ?
Response line: 6.85

Prompt line: Then what about the molecule "O=C(NC1CCN(CCN2CCC(c3c[nH]c4ccccc34)CC2)CC1)c1ccc(-c2ccc(C(F)(F)F)cc2)cc1" ?
Response line: 6.70

Prompt line: Then what about the molecule "c1cc(CNCc2ccc3c(c2)OCO3)cc(-c2cccc(CNc3ccc4ncccc4c3)c2)c1" ?
Response line: 6.12

Prompt line: Then what about the molecule "COc1ccc(-n2cc(CNCCCn3ccnc3)c(-c3cccc(F)c3)n2)cc1" ?
Response line: 5.97

###

- Tested on: P. falciparum 3D7 growth, pLDH absorbance
- protocol notes: blood-stage malaria parasite growth potency – strain 3D7, dose response (AID 2305)
Binary call on IC50 with cut-off 900 nM: strictly below means t, and equality or higher means f.

Before answering, review these 2 worked examples.
| compound | label |
| --- | --- |
| CC(CCc1ccccc1)NCC(O)c1ccc2c(c1)S(=O)(=O)c1ccccc1N2 (stereo not given) | f |
| CCNC(=O)N[C@@H]1CN[C@@H](C#Cc2cc3c(Nc4ccc(OCc5cccc(F)c5)c(Cl)c4)ncnc3s2)C1 | f |

Prompt line: Decide: IC50 of O=[N+]([O-])c1cccc(S(=O)(=O)N2CCN(CC(O)COc3ccc(-c4ccccc4)cc3)CC2)c1 (stereo not given) strictly below 900 nM?
Response line: f

Prompt line: Then what about the compound "CCN(CC)CCN(Cc1ccc(-c2ccc(C(F)(F)F)cc2)cc1)C(=O)Cn1c(SCc2ccc(F)cc2)nc(=O)c2sccc21" ?
Response line: f

###

- Test system: P. falciparum 3D7 growth, pLDH absorbance
- protocol notes: blood-stage malaria parasite growth potency – strain 3D7, dose response (AID 2305)
Catalogue of IC50 readings, one per entry.
Provide the reading as a plain figure in nM.

// known answers, use as guide
| structure notation | tested system | scale unit | IC50 |
| --- | --- | --- | --- |
| CC(=O)Nc1ccc(C(=O)N2CCN(c3ccnc4cc(Cl)ccc34)CC2)cc1 | P. falciparum 3D7 growth, pLDH absorbance | nM | 910 |
| O=C(N[C@H]1CCN(CCc2ccc(O[C@H]3CCNC3)c(Cl)c2)C1)c1ccc(Cl)c(Cl)c1 | P. falciparum 3D7 growth, pLDH absorbance | nM | 890 |
| O=C(NCCCCN1CCN(c2nsc3ccccc23)CC1)c1ccccc1C(=O)NCCCCN1CCN(c2nsc3ccccc23)CC1 | P. falciparum 3D7 growth, pLDH absorbance | nM | 890 |

Proceeding to the next molecule to report its IC50.
Prompt line: Give the reported IC50 for "CN(C)c1ccc(CN2CCC(NC(=O)c3ccc(-c4ccccc4Cl)s3)CC2)cc1" (system: P. falciparum 3D7 growth, pLDH absorbance).
Response line: 900

###

- System: P. falciparum 3D7 growth, pLDH absorbance
- protocol notes: blood-stage malaria parasite growth potency – strain 3D7, dose response (AID 2305)
Binary call on IC50 with cut-off 800 nM: strictly below means fulfilled, and equality or higher means not fulfilled.

Prompt line: Decide: IC50 of "COc1ccc(-c2nonc2NC(=O)c2cccc(Cl)c2)cc1OC" strictly below 800 nM?
Response line: not fulfilled

Prompt line: Then what about the compound "CCNc1cc(C(=O)N[C@@H](Cc2ccccc2)[C@H](O)CNC2CCC(F)(F)CC2)c(F)c(N2CCCCS2(=O)=O)c1" ?
Response line: fulfilled

Prompt line: Then what about the compound "c1ccc(CCNCc2ccc(-c3cccc(-c4nc5ccccc5[nH]4)c3)cc2)nc1" ?
Response line: fulfilled

Prompt line: Then what about the compound CC(NC(=O)c1ccc(O)c(-c2ccc(Cl)c(Cl)c2)c1)C(=O)NCCN1CCCC1 (stereo not drawn) ?
Response line: fulfilled

Prompt line: Then what about the compound "c1ccc(Oc2ccc(Nc3ccnc4cc(-c5csc(CNCCN6CCOCC6)n5)ccc34)cc2)cc1" ?
Response line: fulfilled

Prompt line: Then what about the compound "Cc1ccc(Sc2ccc(NC(=O)CN3CCN(C(=O)c4ccco4)CC3)cc2)cc1C" ?
Response line: not fulfilled

Prompt line: Then what about the compound "Cc1ccc(CN2CCCN(Cc3cccc(C(=O)Nc4ccc(C(C)(C)C)cc4)c3)CC2)s1" ?
Response line: not fulfilled

Prompt line: Then what about the compound "CC(C)n1cc2c(ccc3nc(N)nc(N)c32)n1" ?
Response line: fulfilled

###

Catalogue of pIC50 readings, one per entry.
- Tested on: P. falciparum 3D7 growth, pLDH absorbance
- protocol notes: blood-stage malaria parasite growth potency – strain 3D7, dose response (AID 2305)
Reminder that pIC50 is minus the log10 of a molar concentration.

// known answers, use as guide
| compound | result |
| --- | --- |
| CC1(C)N=C(N)N=C(N)N1O | 6.72 |
| CCN(CC)CCCNc1ncc2c(-c3ccc(NC(=O)Nc4cc(C(F)(F)F)ccc4F)cc3)nn(C)c2n1 | 6.66 |
| O=S(=O)(NCCN1CCCC1)c1cccc(-c2ccccc2CNC2Cc3ccccc3C2)c1 | 6.13 |
| COc1ccc(CN2CCC(N3CC(c4ccccc4)(c4ccccc4)OCC3=O)C2)c(O)c1 (stereo not given) | 6.03 |

Proceeding to the next compound to report its pIC50.
Prompt line: May I ask what pIC50 has been recorded for "Nc1nnc(-c2ccc(Cl)c(Br)c2)c(N)n1" ?
Response line: 5.98
